Values compiled from paper PMC12133982.

Assayed Target: HLA-B4601 (Homo sapiens, UniProt P01889, A329T/A93R/C349S/D201E/E100V/E187L/E204Q/E69M/E70A/I90K/K202T/N87E/R155S/R180W/S121R/S35A/S48A/V306I/V36M/Y140S)
Assay Protocol: Competitive peptide binding assay, CIR-B4601
Run Conditions: HMy2.CIR-B4601 cells, reference Cy5-[…], class from inhibition at 5 and 15 μM, flow cytometry MFI; read-out: Binding affinity with HLA-B4601
Peptide text beside a SMILES is read from it.
I'd be grateful if you could share measured IC50 for these entries.

stdin: Quote IC50 reported for CC[C@H](C)[C@H](NC(=O)[C@@H](NC(=O)[C@H](CC(C)C)NC(=O)[C@H](CCC(=O)O)NC(=O)[C@H](CO)NC(=O)[C@H](CCC(=O)O)NC(=O)[C@@H](N)CC(C)C)C(C)C)C(=O)NCC(=O)N[C@@H](C)C(=O)N[C@H](C(=O)O)C(C)C [Epitope Y211] (H-LESELVIGAV-OH; N-terminus and C-terminus assumed) please.
stdout: > 15 µM

stdin: Quote IC50 reported for C[C@H](NC(=O)CNC(=O)[C@H](C)NC(=O)[C@@H](NC(=O)[C@@H](N)Cc1c[nH]c2ccccc12)[C@@H](C)O)C(=O)N[C@@H](C)C(=O)N[C@@H](C)C(=O)N[C@@H](Cc1ccc(O)cc1)C(=O)N[C@@H](Cc1ccc(O)cc1)C(=O)O [Epitope Y174] (H-WTAGAAAYY-OH; N-terminus and C-terminus assumed) please.
stdout: > 15 µM

---
stdin: Quote IC50 reported for CC(C)[C@H](NC(=O)[C@@H](NC(=O)[C@@H](N)Cc1ccccc1)C(C)C)C(=O)N[C@@H](CO)C(=O)N[C@H](C(=O)NCC(=O)N[C@@H](Cc1ccc(O)cc1)C(=O)N[C@@H](Cc1c[nH]cn1)C(=O)N[C@@H](Cc1ccccc1)C(=O)O)[C@@H](C)O [Epitope Y167] (H-FVVSTGYHF-OH; N-terminus and C-terminus assumed) please.
stdout: 5 to 15 µM

====

I'd be grateful if you could share measured IC50 for these entries.
Assayed Target: HLA-B1302 (Homo sapiens, UniProt P01889, A65T/A93T/A95T/D138N/D201E/D98Y/E176V/E204Q/E69M/E70A/G107R/K202T/L105A/L119W/N104T/N87E/Q94N/R106L/R155S/R169L/R180L/S101N/S121T/S35A/S48T/V127L/V36M/Y140L/Y91S)
Assay Protocol: Competitive peptide binding assay, CIR-B1302
Run Conditions: HMy2.CIR-B1302 cells, reference Cy5-MMWYWGPSL, class from inhibition at 5 and 15 μM, flow cytometry MFI; read-out: Binding affinity with HLA-B1302
Peptide text beside a SMILES is read from it.

Use these answered entries as a reference point.
stdin: Quote IC50 reported for CC(C)C[C@H](NC(=O)[C@H](CC(C)C)NC(=O)[C@H](C)NC(=O)[C@H](CCC(N)=O)NC(=O)[C@H](CCCNC(=N)N)NC(=O)[C@@H](NC(=O)[C@H](CCCNC(=N)N)NC(=O)[C@H](CCC(=O)O)NC(=O)CN)C(C)C)C(=O)O [Epitope Y202] (H-GERVRQALL-OH; N-terminus and C-terminus assumed) please.
stdout: > 15 µM

stdin: Quote IC50 reported for CC[C@H](C)[C@H](N)C(=O)N[C@@H](C)C(=O)N[C@@H](CCSC)C(=O)N[C@@H](C)C(=O)N[C@@H](CS)C(=O)N[C@@H](CC(C)C)C(=O)N[C@H](C(=O)NCC(=O)N[C@@H](CC(C)C)C(=O)O)C(C)C [Epitope Y253] (H-IAMACLVGL-OH; N-terminus and C-terminus assumed) please.
stdout: 5 to 15 µM

# evaluate next
stdin: Quote IC50 reported for C[C@H](NC(=O)[C@H](Cc1ccc(O)cc1)NC(=O)[C@H](C)NC(=O)[C@@H](N)Cc1ccccc1)C(=O)N[C@@H](CC(N)=O)C(=O)N[C@@H](CCCNC(=N)N)C(=O)N[C@@H](CC(N)=O)C(=O)N[C@@H](CCCNC(=N)N)C(=O)N[C@@H](Cc1ccccc1)C(=O)O [Epitope Y49] (H-FAYANRNRF-OH; N-terminus and C-terminus assumed) please.
stdout: > 15 µM
